Origin of the recorded values: patent US11712438B2

Values of IC50 reported for PTGER2 (EP2) (Homo sapiens, UniProt P43116) appear below.

| MOL SMILES | IC50 (µM) |
| --- | --- |
| CCOc1cc(-c2cc(NCCc3c(F)cc(Br)cc3F)ncn2)sc1C(N)=O | 0.046 |
| CCOc1cc(-c2cc(NCCc3ccc(Br)cc3)ncn2)sc1NC(N)=O | 0.039 |
| CCCOc1cc(-c2cc(NCCc3c(C)cc(C)cc3OC)ncn2)ccc1CC(=O)O | 0.433 |
| CCOc1c(C(=O)O)ccc(-c2cc(NCCc3c(F)cc(Br)cc3F)ncn2)c1F | 0.16 |

* * *

Values of IC50 reported for PTRGER4 (EP4) (Homo sapiens, UniProt P35408) appear below.
ENDPOINT LABEL: IC50 (nM)

| MOL SMILES | UNITS LABEL | RECORDED RESULT |
| --- | --- | --- |
| CCOc1cc(-c2cc(NCCc3c(F)cc(Br)cc3F)ncn2)ccc1-c1noc(=S)[nH]1 | nM | 28 |
| CCOc1cc(-c2cc(NCCc3ccc(C)c(C)c3)ncn2)sc1-c1noc(=O)[nH]1 | nM | 14 |
| CCOc1nc(-c2cc(NCCc3c(F)cc(Br)cc3F)ncn2)sc1C(=O)O | nM | 9 |
| Cc1cc(-c2cc(NCCc3c(F)cc(Br)cc3F)ncn2)sc1C(=O)O | nM | 80 |
| CCOC(=O)CCc1sc(-c2cc(NCCc3c(F)cc(Br)cc3F)ncn2)cc1OCC | nM | 278 |
| CCOc1cc(-c2cc(NCCc3ccc(Br)c(F)c3)ncn2)sc1-c1noc(=O)[nH]1 | nM | 5 |
| CCNc1cc(-c2cc(NCCc3c(F)cc(Br)cc3F)ncn2)ccc1C(N)=O | nM | 29 |
| CCOc1c(C(=O)O)sc(-c2cc(NCCc3c(F)cc(Br)cc3F)ncn2)c1Cl | nM | 168 |
| CCc1nc(-c2cc(NCCc3c(F)cc(Br)cc3F)ncn2)sc1C(=O)O | nM | 43 |
| NC(=O)Nc1ccc(-c2cc(NCCc3c(F)cc(Br)cc3F)ncn2)cc1 | nM | 452 |
| CCc1cc(-c2cc(NCCc3c(F)cc(Br)cc3F)ncn2)ccc1C(=O)OC | nM | 307 |
| CCOc1cc(-c2cc(NCCc3c(F)cc(Br)cc3F)ncn2)ccc1NC=O | nM | 72 |
| CCNC(=O)c1ccc(-c2cc(NCCc3c(F)cc(Br)cc3F)ncn2)cc1OCC | nM | 255 |
| CCOc1cc(-c2cc(NCCc3cccc(Br)c3)ncn2)sc1C(=O)O | nM | 203 |
| COc1cc(F)c(CCNc2cc(-c3ccc(C(=O)O)c(SC)c3)ncn2)c(F)c1 | nM | 273 |
| Cc1ccc(CCNc2cc(-c3cc(F)c(C(=O)O)s3)ncn2)cc1 | nM | 402 |
| COc1cc(C(F)F)c(F)cc1CCNc1cc(-c2ccc(C(=O)O)c(OC3CCC3)c2)ncn1 | nM | 140 |

* * *

Values of IC50 reported for EP2 (Homo sapiens) appear below.

| MOL SMILES | EXPERIMENTAL SYSTEM | UNITS LABEL | IC50 |
| --- | --- | --- | --- |
| CCOc1cc(-c2cc(NCCc3c(OC)cc(Br)cc3OC)ncn2)sc1-c1noc(=O)[nH]1 | EP2 (Homo sapiens) | µM | 0.031 |
| CCOc1cc(-c2cc(NCCc3ccc(C)c(C)c3)ncn2)sc1C(=O)O | EP2 (Homo sapiens) | µM | 0.165 |
| CNc1cc(-c2cc(NCCc3c(F)cc(Br)cc3F)ncn2)ccc1-c1noc(=O)[nH]1 | EP2 (Homo sapiens) | µM | 0.044 |
| O=C(O)c1ccc(-c2cc(NCCc3c(F)cc(Br)cc3F)ncn2)s1 | EP2 (Homo sapiens) | µM | 0.046 |
| CCOc1cc(-c2cc(NCCc3cc(F)c(C(F)F)cc3OC)ncn2)sc1C(=O)O | EP2 (Homo sapiens) | µM | 0.041 |
| CCOc1cc(-c2cc(NCCc3cc(C)c(C)cc3OC)ncn2)sc1C(=O)O | EP2 (Homo sapiens) | µM | 0.045 |
| CCOc1cc(Br)ccc1CCNc1cc(-c2ccc(C(=O)O)c(OCC)c2)ncn1 | EP2 (Homo sapiens) | µM | 0.072 |
| CCOc1cc(-c2cc(NCCc3c(F)cc(Br)cc3F)ncn2)sc1-c1noc(=O)[nH]1 | EP2 (Homo sapiens) | µM | 0.009 |
